koff by entry:
Target: T1, cynomolgus soluble urokinase plasminogen activator receptor (suPAR) (cynomolgus, UniProt Q9GK78 23-303, limits assumed)
T1 construct: Column head says only 'cynomologus'; also called cynomolgus suPAR; cynomolgus uPAR
T1 sequence (Q9GK78 23-303 limits assumed): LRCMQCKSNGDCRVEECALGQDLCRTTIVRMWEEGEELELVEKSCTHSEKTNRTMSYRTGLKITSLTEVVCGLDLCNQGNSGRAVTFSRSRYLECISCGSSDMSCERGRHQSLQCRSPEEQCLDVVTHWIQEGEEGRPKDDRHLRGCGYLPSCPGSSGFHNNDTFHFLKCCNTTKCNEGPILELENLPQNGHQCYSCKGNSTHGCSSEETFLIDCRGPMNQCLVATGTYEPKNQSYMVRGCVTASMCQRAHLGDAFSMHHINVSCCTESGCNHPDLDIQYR
Assay: BLI (Octet) off-rate screen of scFv clones
Measured parameter: koff (s⁻¹)

INSERT INTO assay_data (binder, experimental_value) VALUES
  ('suPAR_DB05_E02 (scFv, V domains shown, Screened as scFv) VH: QVQLVQSGAEVKKPGASVKVSCKASGYTFTSYYMHWVRQAPGQGLEWMGWIDLNSGGAKYAQRFQGRVTMTRDTSTSTVYMELSSLRSEDTAVYYCARGYDVDWFVYWGQGTLVTVSS VL: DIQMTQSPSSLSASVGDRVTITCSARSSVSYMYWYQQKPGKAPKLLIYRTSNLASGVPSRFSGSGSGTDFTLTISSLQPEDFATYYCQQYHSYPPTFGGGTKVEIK', 0.000824),
  ('suPAR_DB05_A08 (scFv, V domains shown, Screened as scFv) VH: QVQLVQSGAEVKKPGASVKVSCKASGYTFTNYYMHWVRQAPGQGLEWMGWIDSNSGGTNYAQKFQGRVTMTRDTSTSTVYMELSSLRSEDTAVYYCARGYDVDWFVYWGQGTLVTVSS VL: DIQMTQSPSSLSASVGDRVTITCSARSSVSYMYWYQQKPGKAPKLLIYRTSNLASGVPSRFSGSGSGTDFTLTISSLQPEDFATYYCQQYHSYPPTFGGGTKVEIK', '9.8e-05'),
  ('suPAR_DB04_H07 (scFv, V domains shown, Screened as scFv) VH: QVQLVQSGAEVKKPGASVKVSCKASGYTFTSYYMHWVRQAPGQGLEWMGWIDHENGNTSYDQKFQGRVTMTRDTSTSTVYMELSSLRSEDTAVYYCARGYDVDWFVYWGQGTLVTVSS VL: DIQMTQSPSSLSASVGDRVTITCRARSSVSYMYWYQQKPGKAPKLLIYRTSNLASGVPSRFSGSGSGTDFTLTISSLQPEDFATYYCQQYHSYPPTFGGGTKVEIK', 0.000249);
